target-entity: Protein arginine N-methyltransferase 1 (Homo sapiens)
assay-comment: human PRMT1 activity-probe blockers – biochemical, fluorescence polarization, primary screen (AID 652257)
recorded-conditions: recombinant PRMT1, activity-based probe fluorescence polarization; at 2.79 µM; active compounds read high
Hit rate of the full screen: of about 370,000 compounds, about 4,800 (1.3%) were called active. The entries come from a sample that favours actives as a whole.
Entries and their inhibition
Enter your answer as a number in %; do not include the unit.

Reference set, count: 3
C=CCn1c(=NC(=O)c2cccs2)sc2cc(NC(C)=O)ccc21 : 4.42
CN(C)C(=O)N=NC(=O)N(C)C : 27.4
CC(C)=C1C2CCC1C1C(=O)N(NC(=O)c3ccco3)C(=O)C21 (configuration not stated) : -2.54

inhibition reported for this compound CC(C)C(C#CC1CC1)N(Cc1ccc2c(c1)OCO2)C(N)=NC(=O)/C=C/c1cccc(C(F)(F)F)c1 (configuration not stated) : 1.58

inhibition reported for this compound `O=c1cc(CCl)nc2scc(-c3ccccc3)n12` : 6.61

inhibition reported for this compound `COc1ccc(N=Nc2c(-c3ccc(OC)cc3)[nH]oc2=O)cc1` : -0.55

inhibition reported for this compound `O=C(NC1=CC(=O)c2ccccc2C1=O)c1ccccc1` : 36.9

inhibition reported for this compound `N#CCOc1ccc(C2=NO[C@@H]3[C@@H]4C[C@@H]([C@H]5C(=O)N(c6ccc7c(c6)OCO7)C(=O)[C@@H]45)[C@H]23)cc1` : -0.79
